These entries and their values trace back to ChEMBL document CHEMBL1155823.

# measurement-target: Bifunctional dihydrofolate reductase-thymidylate synthase (Toxoplasma gondii) (UniProt Q07422)
# Sequence (whole entry): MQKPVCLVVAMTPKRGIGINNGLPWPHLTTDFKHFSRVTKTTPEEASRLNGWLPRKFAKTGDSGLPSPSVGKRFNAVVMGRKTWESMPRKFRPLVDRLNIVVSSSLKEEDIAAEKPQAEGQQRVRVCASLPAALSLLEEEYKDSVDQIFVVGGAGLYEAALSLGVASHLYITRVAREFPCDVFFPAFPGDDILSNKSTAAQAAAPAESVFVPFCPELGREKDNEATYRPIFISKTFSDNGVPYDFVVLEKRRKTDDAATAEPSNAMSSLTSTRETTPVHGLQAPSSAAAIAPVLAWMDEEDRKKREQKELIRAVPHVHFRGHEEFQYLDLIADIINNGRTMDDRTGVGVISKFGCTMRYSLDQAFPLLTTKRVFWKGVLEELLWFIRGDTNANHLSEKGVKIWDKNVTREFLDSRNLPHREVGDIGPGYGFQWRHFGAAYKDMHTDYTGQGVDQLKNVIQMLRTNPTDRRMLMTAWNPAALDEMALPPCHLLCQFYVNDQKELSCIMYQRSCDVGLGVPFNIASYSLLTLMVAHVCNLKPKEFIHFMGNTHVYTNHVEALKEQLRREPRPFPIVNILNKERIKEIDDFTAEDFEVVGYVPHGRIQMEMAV
# test-method-notes: Inhibition of Toxoplasma gondii thymidylate synthase at >[…] uM
property: inhibition (%)
Answer with a number only, understood to be in %.

Before answering, review these 2 worked examples.
{"columns": ["chemical-smiles", "property", "measure-unit", "observed-result"],
 "data": [
  ["CC(C)c1c(Sc2ccc(Cl)c(Cl)c2)[nH]c2nc(N)nc(N)c12", "inhibition", "%", 0],
  ["CCCc1c(Sc2cc(OC)ccc2OC)[nH]c2nc(N)nc(N)c12", "inhibition", "%", 0]
]}

Now examine the next entry.
**Query** # get_value(readout='inhibition', item= COc1ccc(Sc2[nH]c3nc(N)nc(N)c3c2C(C)C)cc1OC )
**Result** 0

###

# measurement-target: Dihydrofolate reductase (Homo sapiens)
# Sequence (P00374 whole entry): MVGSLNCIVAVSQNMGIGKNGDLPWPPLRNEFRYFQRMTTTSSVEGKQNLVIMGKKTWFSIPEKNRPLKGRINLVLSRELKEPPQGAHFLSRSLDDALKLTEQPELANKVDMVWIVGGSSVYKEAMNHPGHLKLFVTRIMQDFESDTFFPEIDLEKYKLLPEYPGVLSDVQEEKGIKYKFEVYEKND
# test-method-notes: Inhibition of human dihydrofolate reductase at >[…] uM
Recorded inhibition values for a group of compounds are listed next.
Report only the number, with the unit % understood.

Illustrative cases are given below, each with its answer.
{"columns": ["chemical-smiles", "observed-result"],
 "data": [
  ["CC(C)c1c(Sc2ccc(Cl)c(Cl)c2)[nH]c2nc(N)nc(N)c12", 0],
  ["CC(C)c1c(Sc2c(Cl)cccc2Cl)[nH]c2nc(N)nc(N)c12", 37],
  ["CCCc1c(Sc2ccc(OC)c(OC)c2)[nH]c2nc(N)nc(N)c12", 35]
]}

Could you now consider this next compound?
**Query** Bench note: what inhibition did CCCc1c(Sc2ccc3ccccc3c2)[nH]c2nc(N)nc(N)c12 show?
**Result** 30

###

Quick note: these are pIC50 numbers for system: Dihydrofolate reductase (Rattus norvegicus, UniProt Q920D2)
Sequence (Q920D2 whole entry): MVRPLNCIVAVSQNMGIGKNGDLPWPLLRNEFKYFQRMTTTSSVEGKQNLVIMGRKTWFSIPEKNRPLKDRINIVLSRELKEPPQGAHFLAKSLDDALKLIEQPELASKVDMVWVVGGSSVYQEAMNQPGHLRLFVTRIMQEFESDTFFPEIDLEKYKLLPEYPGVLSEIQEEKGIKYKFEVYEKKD
pIC50 here: minus log base 10 of the concentration, concentration in moles per litre.

Record excerpt, results attached:
{"columns": ["chemical-smiles", "pIC50"],
 "data": [
  ["CCCc1c(Sc2cc(OC)ccc2OC)[nH]c2nc(N)nc(N)c12", 5.05],
  ["COc1ccc(Sc2[nH]c3nc(N)nc(N)c3c2C(C)C)cc1OC", 5.34],
  ["CCCc1c(Sc2ccc3ccccc3c2)[nH]c2nc(N)nc(N)c12", 5.42]
]}

Switching to the query record.
**Query** Data request, read-out pIC50, for CCCc1c(Sc2ccc(OC)c(OC)c2)[nH]c2nc(N)nc(N)c12
**Result** 5.46

###

# measurement-target: Bifunctional dihydrofolate reductase-thymidylate synthase (Toxoplasma gondii, UniProt Q07422)
# Sequence (Q07422 whole entry): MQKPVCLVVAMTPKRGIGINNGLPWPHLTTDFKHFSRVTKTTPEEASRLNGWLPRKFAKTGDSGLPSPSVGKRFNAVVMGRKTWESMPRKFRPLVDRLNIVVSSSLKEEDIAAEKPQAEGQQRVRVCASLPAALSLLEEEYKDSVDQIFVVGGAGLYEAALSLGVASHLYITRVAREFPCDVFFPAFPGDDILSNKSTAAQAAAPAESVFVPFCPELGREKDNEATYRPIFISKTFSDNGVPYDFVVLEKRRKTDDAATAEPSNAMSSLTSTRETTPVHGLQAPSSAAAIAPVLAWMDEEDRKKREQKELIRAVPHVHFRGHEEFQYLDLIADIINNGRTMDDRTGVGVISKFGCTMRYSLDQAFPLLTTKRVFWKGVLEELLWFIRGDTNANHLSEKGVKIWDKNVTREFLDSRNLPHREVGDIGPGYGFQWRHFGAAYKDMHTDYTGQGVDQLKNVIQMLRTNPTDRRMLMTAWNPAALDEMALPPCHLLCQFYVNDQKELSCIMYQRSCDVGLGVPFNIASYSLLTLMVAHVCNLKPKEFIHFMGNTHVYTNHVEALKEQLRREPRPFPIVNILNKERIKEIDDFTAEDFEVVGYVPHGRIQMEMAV
# test-method-notes: Inhibition of Toxoplasma gondii dihydrofolate reductase
property: pIC50
Friendly reminder that pIC50 comes from taking -log10 of the concentration in mol/L.

{"columns": ["chemical-smiles", "observed-result"],
 "data": [
  ["CCCc1c(Sc2ccccc2)[nH]c2nc(N)nc(N)c12", 6.92],
  ["Cc1cccc(C)c1Sc1[nH]c2nc(N)nc(N)c2c1C(C)C", 6.52],
  ["COc1ccc(Sc2[nH]c3nc(N)nc(N)c3c2C(C)C)cc1", 6.22]
]}

**Query** Which measured pIC50 value corresponds to CCCc1c(Sc2ccc(OC)c(OC)c2)[nH]c2nc(N)nc(N)c12 ?
**Result** 6.00

**Query** Try CC(C)c1c(Sc2cccc3ccccc23)[nH]c2nc(N)nc(N)c12 next.
**Result** 6.92

**Query** Repeat with CC(C)c1c(Sc2ccc3ccccc3c2)[nH]c2nc(N)nc(N)c12
**Result** 5.82

**Query** Can you handle CCCc1c(Sc2cccc3ccccc23)[nH]c2nc(N)nc(N)c12 next?
**Result** 7.24

**Query** Further, for CCCc1c(Sc2ccc(OC)cc2)[nH]c2nc(N)nc(N)c12 ?
**Result** 6.64

**Query** Lookup COc1ccc(OC)c(Cc2sc3nc(N)nc(N)c3c2C)c1
**Result** 7.15

**Query** // repeat for CCCc1c(Sc2ccc3ccccc3c2)[nH]c2nc(N)nc(N)c12 and report
**Result** 6.82

**Query** Next record, please: CC(C)c1c(Sc2ccc(Cl)c(Cl)c2)[nH]c2nc(N)nc(N)c12
**Result** 5.85

###

Record set of IC50 for target or system Dihydrofolate reductase (Pneumocystis carinii, UniProt P16184).
Your answer should be a number followed by the unit of measure.

{"columns": ["chemical-smiles", "observed-result"],
 "data": [
  ["CCc1c(Sc2ccccc2)[nH]c2nc(N)nc(N)c12", "21.8 µM"],
  ["CCc1c(Sc2cc(OC)ccc2OC)[nH]c2nc(N)nc(N)c12", "6.04 µM"],
  ["CCCc1c(Sc2ccc3ccccc3c2)[nH]c2nc(N)nc(N)c12", "3.5 µM"]
]}

**Query** Returns the measured IC50 for the input compound. Input: CC(C)c1c(Sc2c(Cl)cccc2Cl)[nH]c2nc(N)nc(N)c12
**Result** 22 µM

###

Below are IC50 values recorded for Thymidylate synthase (Escherichia coli).

Sample answers from the record:
{"columns": ["chemical-smiles", "property", "observed-result"],
 "data": [
  ["CCCc1c(Sc2cc(OC)ccc2OC)[nH]c2nc(N)nc(N)c12", "IC50", "> 12 µM"],
  ["CC(C)c1c(Sc2ccc(Cl)c(Cl)c2)[nH]c2nc(N)nc(N)c12", "IC50", "> 2.3 µM"],
  ["CCCc1c(Sc2ccc(OC)c(OC)c2)[nH]c2nc(N)nc(N)c12", "IC50", "> 11 µM"],
  ["CCCc1c(Sc2c(C)cccc2C)[nH]c2nc(N)nc(N)c12", "IC50", "> 24 µM"],
  ["COc1ccc(Sc2[nH]c3nc(N)nc(N)c3c2C(C)C)cc1", "IC50", "> 2.5 µM"]
]}

**Query** # lookup: IC50 of CC(C)c1c(Sc2ccc3ccccc3c2)[nH]c2nc(N)nc(N)c12
**Result** > 2.4 µM

**Query** Lookup CCCc1c(Sc2c(Cl)cccc2Cl)[nH]c2nc(N)nc(N)c12
**Result** > 22 µM

**Query** Queued: CC(C)c1c(Sc2ccccc2)[nH]c2nc(N)nc(N)c12
**Result** > 2.7 µM

**Query** Then this compound: Cc1cccc(C)c1Sc1[nH]c2nc(N)nc(N)c2c1C(C)C
**Result** > 13 µM

###

Below are IC50 values recorded for Dihydrofolate reductase (Homo sapiens, UniProt P00374).

**Query** Recorded IC50 for COc1ccc(Sc2[nH]c3nc(N)nc(N)c3c2C(C)C)cc1 , please?
**Result** 30 µM

**Query** Again, but for CCCc1c(Sc2cc(OC)ccc2OC)[nH]c2nc(N)nc(N)c12
**Result** > 28 µM

**Query** Follow-up entry: CCCc1c(Sc2ccc(OC)c(OC)c2)[nH]c2nc(N)nc(N)c12
**Result** > 26 µM

**Query** Then this compound: Cc1cccc(C)c1Sc1[nH]c2nc(N)nc(N)c2c1C(C)C
**Result** > 30 µM

**Query** Also need CC(C)c1c(Sc2ccc(Cl)c(Cl)c2)[nH]c2nc(N)nc(N)c12 , thanks.
**Result** > 27 µM

**Query** Input CC(C)c1c(Sc2c(Cl)cccc2Cl)[nH]c2nc(N)nc(N)c12
**Result** > 26 µM

**Query** Next up: CCCc1c(Sc2ccccc2)[nH]c2nc(N)nc(N)c12
**Result** 33 µM
